Molecular target: CDK2/Cyclin E complex (Homo sapiens, UniProt P24941)
Assay: In vitro kinase assay, CDK2/Cyclin E complex
Settings: recombinant protein (Upstate); read-out: CDK2/cyclinE IC50
QUANTITY MEASURED: pIC50
Please treat pIC50 as minus the base-10 logarithm of the molar concentration.

Request the reported pIC50 associated with CC(=O)Nc1cc(NC(C(=O)Nc2nc3c(C(F)(F)F)cc4[nH]ncc4c3s2)c2ccccc2)ccc1Cl (stereo not shown) 6.76

Next entry: "COc1cc(NCC(=O)Nc2nc3ccc4[nH]ncc4c3s2)ccc1Cl" 6.47

Now consider "CC(C)(Nc1ccc(F)c(F)c1)C(=O)Nc1nc2c(C(F)(F)F)cc3[nH]ncc3c2s1" and answer again. 6.47

Can you handle "CC(C)(Nc1cccc(S(N)(=O)=O)c1)C(=O)Nc1nc2c(C(F)(F)F)cc3[nH]ncc3c2s1" next? 7.82

// repeat for "CNC(=O)c1cc(NC(C)(C)C(=O)Nc2nc3c(C(F)(F)F)cc4[nH]ncc4c3s2)ccc1F" and report 7.40

What about "CC(=O)Nc1cccc(NCC(=O)Nc2nc3ccc4[nH]ncc4c3s2)c1" ? 7.26

Then this compound: O=C(Nc1nc2ccc3[nH]ncc3c2s1)C(CO)Nc1ccc(Cl)cc1 (stereo not shown) 7.70

What about this compound? "CC(=O)Nc1cc(NC2(C(=O)Nc3nc4ccc5[nH]ncc5c4s3)CC2)ccc1F" 7.19

Repeat for the following compound: "CC(=O)Nc1cc(NC(C)(C)C(=O)Nc2nc3c(C(F)(F)F)cc4[nH]ncc4c3s2)ccc1Cl" 7.29

Same question for "CC(C)(Nc1cccc(O)c1)C(=O)Nc1nc2ccc3[nH]ncc3c2s1" please. 7.48

Request: "CCOC(=O)c1cc(NC2(C(=O)Nc3nc4ccc5[nH]ncc5c4s3)CC2)ccc1Cl" 6.94

Could you do the same for "CC(C)(Nc1ccc(Cl)c(C(N)=O)c1)C(=O)Nc1nc2c(C(F)(F)F)cc3[nH]ncc3c2s1" , please? 7.28

And the next one, CC(Nc1cccc(O)c1)C(=O)Nc1nc2ccc3[nH]ncc3c2s1 (stereo not shown) ? 7.52

And what about the compound "Cc1cc2[nH]ncc2c2sc(NC(=O)C3(Nc4ccc(Cl)cc4)CC3)nc12" ? 6.89

Next compound up: "CNC(=O)c1cc(NC2(C(=O)Nc3nc4ccc5[nH]ncc5c4s3)CC2)ccc1Cl" 7.41

What would you report for "CC(C)(Nc1ccc(Cl)c(C(=O)NCCC(=O)O)c1)C(=O)Nc1nc2c(C(F)(F)F)cc3[nH]ncc3c2s1" ? 6.77

* * *

Record form. Attribute: pIC50. Fill in for each entry.
Target: CDK3/Cyclin E complex (Homo sapiens, UniProt Q00526)
Sequence (Q00526 whole entry): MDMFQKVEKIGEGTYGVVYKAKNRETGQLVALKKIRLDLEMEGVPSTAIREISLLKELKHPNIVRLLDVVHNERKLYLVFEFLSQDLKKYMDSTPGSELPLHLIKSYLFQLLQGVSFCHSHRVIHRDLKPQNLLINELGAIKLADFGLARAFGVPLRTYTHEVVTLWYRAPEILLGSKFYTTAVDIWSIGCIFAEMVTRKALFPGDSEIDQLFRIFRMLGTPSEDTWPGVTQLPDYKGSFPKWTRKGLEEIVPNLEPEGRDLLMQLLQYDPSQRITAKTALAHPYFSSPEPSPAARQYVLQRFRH
Sequence (P24864 whole entry partner): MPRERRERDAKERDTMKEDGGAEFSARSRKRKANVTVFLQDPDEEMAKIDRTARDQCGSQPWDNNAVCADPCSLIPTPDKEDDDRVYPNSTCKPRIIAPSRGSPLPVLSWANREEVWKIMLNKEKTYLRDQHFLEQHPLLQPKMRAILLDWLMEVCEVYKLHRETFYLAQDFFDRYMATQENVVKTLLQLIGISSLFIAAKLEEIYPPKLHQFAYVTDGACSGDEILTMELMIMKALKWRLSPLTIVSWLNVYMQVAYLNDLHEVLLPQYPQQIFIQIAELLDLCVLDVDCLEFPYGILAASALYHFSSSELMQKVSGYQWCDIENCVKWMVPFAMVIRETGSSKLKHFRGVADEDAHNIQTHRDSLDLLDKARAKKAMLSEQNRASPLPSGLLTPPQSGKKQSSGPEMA
Test: In vitro kinase assay, CDK3/Cyclin E complex
Details: recombinant protein (Upstate); read-out: CDK3/cyclinE IC50
pIC50 field: float, defined as -log10 of concentration (mol/L).

Query for CDK3/Cyclin E complex (Homo sapiens, UniProt Q00526): what pIC50 does the record show for "CC(C)(Nc1ccc(Cl)c(C(=O)NCCCC(=O)O)c1)C(=O)Nc1nc2c(C(F)(F)F)cc3[nH]ncc3c2s1" ? 6.74

Same question for CC(=O)Nc1cc(NC(C(=O)Nc2nc3ccc4[nH]ncc4c3s2)c2ccccc2)ccc1Cl (stereo not shown) please. 6.37

Ok, now "O=C(Nc1nc2ccc3[nH]ncc3c2s1)C1(Nc2ccc(Cl)cc2)CC1" 7.36

Another: "CNC(=O)c1cc(NC2(C(=O)Nc3nc4ccc5[nH]ncc5c4s3)CC2)ccc1Cl" 7.42

Let us now turn to "CC(C)(Nc1ccc(F)c(F)c1)C(=O)Nc1nc2c(C(F)(F)F)cc3[nH]ncc3c2s1" 6.74

Do the same for "CC(C)(Nc1cccc(C(=O)NCCCC(=O)O)c1)C(=O)Nc1nc2c(C(F)(F)F)cc3[nH]ncc3c2s1" please 6.80

Input "CC(C)(Nc1ccc(Cl)c(C(=O)NOCc2ccccc2)c1)C(=O)Nc1nc2c(C(F)(F)F)cc3[nH]ncc3c2s1" 6.89

* * *

Target: CDK3/Cyclin E complex (Homo sapiens, UniProt Q00526)
Assay: In vitro kinase assay, CDK3/Cyclin E complex
Conditions: recombinant protein (Upstate); read-out: CDK3/cyclinE IC50
Description: Inhibitory activity against Aurora A, CDK1/Cyclin B complex, CDK2/Cyclin E complex and CDK3/Cyclin E complex were measured by in vitro kinase assay using recombinant proteins.
QUANTITY MEASURED: pIC50
Note: pIC50 values are expressed as the negative base-10 logarithm of concentration in M.

Which value of pIC50 has been reported for "CC(C)(Nc1ccc(Cl)c(C(=O)NC2CC2)c1)C(=O)Nc1nc2c(C(F)(F)F)cc3[nH]ncc3c2s1" in the records? 7.39

Entry "CC(C)(Nc1ccc(Cl)c(C(N)=O)c1)C(=O)Nc1nc2c(C(F)(F)F)cc3[nH]ncc3c2s1" please 7.64

Thanks! And NC(=O)CC(Nc1cccc(O)c1)C(=O)Nc1nc2ccc3[nH]ncc3c2s1 (stereo not shown) ? 7.26

// same read-out, input: "Cc1cc2[nH]ncc2c2sc(NC(=O)C3(Nc4ccc(Cl)cc4)CC3)nc12" 6.73

Lookup "CC(=O)Nc1cc(NC(C)(C)C(=O)Nc2nc3c(C(F)(F)F)cc4[nH]ncc4c3s2)ccc1Cl" 7.35

Same lookup for "CNC(=O)c1cc(NC(C)(C)C(=O)Nc2nc3c(C(F)(F)F)cc4[nH]ncc4c3s2)ccc1F" , please. 7.92

Query "CC(C)(Nc1ccc(Cl)c(NS(C)(=O)=O)c1)C(=O)Nc1nc2c(C(F)(F)F)cc3[nH]ncc3c2s1" next 7.36

* * *

Target: CDK1/Cyclin B complex (Homo sapiens, UniProt P06493)
Construct: purchased Upstate Inc. 14-450
Sequence (P06493 whole entry): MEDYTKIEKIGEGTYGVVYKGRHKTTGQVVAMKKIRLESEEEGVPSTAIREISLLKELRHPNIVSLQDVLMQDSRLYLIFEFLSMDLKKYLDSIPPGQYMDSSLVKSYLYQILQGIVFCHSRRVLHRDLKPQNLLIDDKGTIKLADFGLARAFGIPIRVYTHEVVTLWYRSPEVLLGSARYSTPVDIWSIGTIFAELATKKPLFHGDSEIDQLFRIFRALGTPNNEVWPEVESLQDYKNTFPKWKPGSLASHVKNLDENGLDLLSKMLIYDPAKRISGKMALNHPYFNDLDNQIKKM
Sequence (P14635 whole entry partner): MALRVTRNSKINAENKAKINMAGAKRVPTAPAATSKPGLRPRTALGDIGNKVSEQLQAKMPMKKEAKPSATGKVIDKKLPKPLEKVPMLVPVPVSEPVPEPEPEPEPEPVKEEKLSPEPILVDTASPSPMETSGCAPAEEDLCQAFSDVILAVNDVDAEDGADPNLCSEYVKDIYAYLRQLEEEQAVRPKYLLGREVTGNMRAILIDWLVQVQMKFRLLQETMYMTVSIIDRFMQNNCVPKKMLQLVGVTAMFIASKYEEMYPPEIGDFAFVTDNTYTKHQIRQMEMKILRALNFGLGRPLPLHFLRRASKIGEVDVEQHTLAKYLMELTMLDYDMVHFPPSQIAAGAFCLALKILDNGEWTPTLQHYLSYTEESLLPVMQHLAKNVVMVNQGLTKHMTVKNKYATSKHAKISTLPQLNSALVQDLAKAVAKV
Assay: In vitro kinase assay, CDK1/Cyclin B complex
Format: biochemical
Settings: recombinant protein (Upstate)
QUANTITY MEASURED: IC50 (nM)
All answers are understood in nM, so give the number only.

Query (compound): CC(C)(Nc1ccc(Cl)c(C(=O)NCC(N)=O)c1)C(=O)Nc1nc2c(C(F)(F)F)cc3[nH]ncc3c2s1 [compound 85] ; field requested: IC50 1.8

Queued: CNC(=O)c1cc(NC(C)(C)C(=O)Nc2nc3c(C(F)(F)F)cc4[nH]ncc4c3s2)ccc1Cl [compound 55] 73

Here is the next compound: CC(Nc1cccc(O)c1)C(=O)Nc1nc2ccc3[nH]ncc3c2s1 (stereo not drawn) [compound 23] 150

* * *

Biological target: Aurora A (Homo sapiens, UniProt O14965)
Sequence (O14965 whole entry): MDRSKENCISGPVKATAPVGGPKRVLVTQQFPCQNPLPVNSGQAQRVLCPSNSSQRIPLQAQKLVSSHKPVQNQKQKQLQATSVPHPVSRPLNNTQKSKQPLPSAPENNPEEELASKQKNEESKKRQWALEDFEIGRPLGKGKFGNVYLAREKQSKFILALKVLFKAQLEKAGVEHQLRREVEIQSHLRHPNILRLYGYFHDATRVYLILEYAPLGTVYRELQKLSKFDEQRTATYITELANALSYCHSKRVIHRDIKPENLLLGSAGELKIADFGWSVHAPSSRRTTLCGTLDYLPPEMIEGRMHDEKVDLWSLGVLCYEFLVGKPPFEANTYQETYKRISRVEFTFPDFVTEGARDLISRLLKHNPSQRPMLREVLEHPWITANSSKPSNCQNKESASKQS
Assay: In vitro kinase assay, Aurora A
Conditions: recombinant protein (Upstate)
hey, just use Y if measured IC50 is less than 90 nM, otherwise N

Strictly below 90 nM: is that where IC50 of "CC(C)(Nc1ccc(Cl)c(C(=O)NOCc2ccccc2)c1)C(=O)Nc1nc2c(C(F)(F)F)cc3[nH]ncc3c2s1" sits? Y

Entry CC(=O)Nc1cc(NC(C(=O)Nc2nc3ccc4[nH]ncc4c3s2)c2ccccc2)ccc1Cl (centres unmarked) please N

Queued: "CC(C)(Nc1ccc(Cl)c(C(=O)NCCC(=O)O)c1)C(=O)Nc1nc2c(C(F)(F)F)cc3[nH]ncc3c2s1" N

Entry "CC(C)(Nc1ccc(Cl)c(C(=O)NCC(=O)O)c1)C(=O)Nc1nc2c(C(F)(F)F)cc3[nH]ncc3c2s1" please Y

* * *

Target: CDK3/Cyclin E complex (Homo sapiens, UniProt Q00526)
Construct: purchased Upstate Inc. 14-487
Experiment: In vitro kinase assay, CDK3/Cyclin E complex
Type: biochemical
Conditions: recombinant protein (Upstate); read-out: CDK3/cyclinE IC50
pIC50: −log10 of the molar value.
Tick yes (1) if pIC50 is 7 or greater. Tick no (0) if pIC50 is less than 7.

Would you say "CC(C)(Nc1cccc(NS(C)(=O)=O)c1)C(=O)Nc1nc2c(C(F)(F)F)cc3[nH]ncc3c2s1" shows pIC50 at minimum 7? no (0)

Now consider "O=C(CNc1ccc(Cl)c(O)c1)Nc1nc2ccc3[nH]ncc3c2s1" and answer again. yes (1)

Again, but for "COC(=O)c1cccc(NCC(=O)Nc2nc3ccc4[nH]ncc4c3s2)c1" no (0)

Subsequent entry: "CC(C)(Nc1ccc(Cl)c(C(=O)NCCCS(N)(=O)=O)c1)C(=O)Nc1nc2c(C(F)(F)F)cc3[nH]ncc3c2s1" yes (1)

Further, for "CC(C)(Nc1cccc(O)c1)C(=O)Nc1nc2ccc3[nH]ncc3c2s1" ? yes (1)

Could you do the same for "CC(C)(Nc1cccc(C(=O)O)c1)C(=O)Nc1nc2c(C(F)(F)F)cc3[nH]ncc3c2s1" , please? no (0)
